The variants listed here are annotated with their self-cleavage.
B1: HDV Ribozyme (parent)
chain: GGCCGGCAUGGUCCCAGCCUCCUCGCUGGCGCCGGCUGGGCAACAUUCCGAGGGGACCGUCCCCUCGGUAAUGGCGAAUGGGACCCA

# Variants of: B1
# test-summary: self-cleavage, relative activity (ratio to wild type); higher = more cleavage; co-transcriptional
Give the value as a plain number.

// below: answered variants
[[record]]
residue_change = "G73C U79C"
reported_measurement = 0.161

[[record]]
residue_change = "C21U C48A"
reported_measurement = 0.302

[[record]]
residue_change = "G38A U69A"
reported_measurement = 0.148

[[record]]
residue_change = "U20C C41U"
reported_measurement = 0.0449

[[record]]
residue_change = "C18G A56G"
reported_measurement = 0

[[record]]
residue_change = "C36U G80U"
reported_measurement = 0.224

[[record]]
residue_change = "U9G A51C"
reported_measurement = 1.03

[[record]]
residue_change = "C15G A16C"
reported_measurement = 0.369

[[record]]
residue_change = "U20G A45G"
reported_measurement = 0.0755

[[record]]
residue_change = "G53C A78U"
reported_measurement = 0.525


// next item, self-cleavage requested
Problem: Entry under review: U47C C49G . Reported self-cleavage?
Result: 0.978
